Ref: PubChem BioAssay

Test: binders of probe aFST on microarray, primary screen, stem cell growth factor project, biochemical, small-molecule microarray, fluorescence 635/667 (AID 1086);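 also: score merges 667 nm fluorescence with signal-to-noise of each printed compound spot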
Details: higher = more signal
Quick rule: composite z-score of at least 0.08 means Met, below that means Not met.

Here's what some known entries look like.
compound: COc1ccc([Si](C)(C)[C@@H]2[C@@H](CCn3cc([C@H](O)c4ccccc4)nn3)O[C@]3(C(=O)N(Cc4ccc(N5CCOC5=O)cc4)c4ccccc43)[C@H]2C)cc1
discrete_label: Met

compound: O=c1cccc(-c2cccc(Cl)c2)o1
discrete_label: Met

compound: C=C(C(=O)CC[C@H](OC(C)=O)c1cccc(OCCO)c1)C(C)C
discrete_label: Not met

compound: Cc1ccc(S[C@]2(C(=O)NC3CC3)CC(=O)N(Cc3ccccc3Cl)[C@@H]2c2ccc(CO)cc2I)cc1
discrete_label: Not met

In: Tell me whether composite z-score is at least 0.08 here: COC(=O)[C@@]1(Cc2ccc(F)cc2)[C@H]2c3cc(C(=O)N4CCCC4)n(CCc4c[nH]c5ccc(OC)cc45)c3C[C@H]2CN1C(=O)c1ccccc1
Out: Met

In: # bool: composite z-score of CC1CC/C=C\[C@H]2OC34C=CCN(C(C)C)C(=O)[C@H]3N(CCCCCO)C(=O)[C@@H]4C2C(=O)O1 (stereo partly specified) >= 0.08
Out: Not met
